Biological target: UniProt:P31652
Sequence (P31652 whole entry): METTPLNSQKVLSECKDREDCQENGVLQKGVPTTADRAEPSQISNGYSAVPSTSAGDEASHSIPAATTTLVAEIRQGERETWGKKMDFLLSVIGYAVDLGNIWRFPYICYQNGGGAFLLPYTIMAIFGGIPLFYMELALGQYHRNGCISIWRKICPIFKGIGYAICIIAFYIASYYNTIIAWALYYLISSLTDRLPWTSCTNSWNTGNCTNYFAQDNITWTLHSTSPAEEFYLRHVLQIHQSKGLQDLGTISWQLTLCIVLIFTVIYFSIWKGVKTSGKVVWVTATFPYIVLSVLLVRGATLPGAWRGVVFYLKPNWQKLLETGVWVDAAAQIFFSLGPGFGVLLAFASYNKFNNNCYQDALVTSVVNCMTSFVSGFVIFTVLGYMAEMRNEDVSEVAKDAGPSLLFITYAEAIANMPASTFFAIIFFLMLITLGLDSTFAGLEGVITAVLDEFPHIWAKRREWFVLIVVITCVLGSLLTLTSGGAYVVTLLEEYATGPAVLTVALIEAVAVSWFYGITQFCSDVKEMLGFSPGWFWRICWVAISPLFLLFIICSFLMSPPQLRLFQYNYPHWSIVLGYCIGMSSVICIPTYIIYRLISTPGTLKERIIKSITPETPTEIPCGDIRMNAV
pKi: −log10 of the molar value.

| molecule | pKi |
| --- | --- |
| O=[N+]([O-])c1ccc2nc(N3CCNCC3)ccc2c1I | 9.72 |
| O=[N+]([O-])c1ccc2nc(N3CCNCC3)ccc2c1 | 9.79 |
| CC1CNCCN1c1ccc2cc([N+](=O)[O-])ccc2n1 (stereo not drawn) | 10.09 |
